# Test system: NCI-H23 lung
# protocol: NCI tumour cell line growth inhibition, 48 h
metric-name: TGI (µM)
# output: bare number, implied unit µM

INSERT INTO assay_data (compound, recorded_result) VALUES
  ('CC(c1ccc2c(c1)CCC1C2CC2OC23CC=CC(=O)[C@]13C)C1C[C@]2(C)O[C@]2(C)[C@H](O)O1 (stereo partly specified)', 25.2),
  ('CCN1c2cc(Br)cc3[nH]c(=O)n(c23)CCC1C (stereo unspecified)', 53.2),
  ('COc1ccc2c(c1)-c1c(c3cc(OC)ccc3n1CCCN(C)C)CC2', 37);

Next, consider the following compound.
Kindly state the measured TGI obtained for "CCC/C(Cl)=N/OC(=O)Nc1cc(C(F)(F)F)ccc1OC" with NCI-H23 lung. 37.2

###

# Test system: DU-145 prostate
# protocol: NCI tumour cell line growth inhibition, 48 h; in the data active means GI50 below about 0.43 µM; inactive means the rest
Log the outcome using a class from active, inactive

Some entries whose results are on file:
INSERT INTO results (compound, assigned_category) VALUES
  ('COc1ccc(NC2=C(I)C(=O)c3ncccc3C2=O)cc1', 'inactive'),
  ('O=c1c2ccccc2c(/C=N\NC2=NCCN2)c2oc3ccccc3n12', 'inactive'),
  ('CC(C)(C)CC(C)(C)c1ccc(O)c(Cc2ccc(Cl)cc2Cl)c1', 'inactive'),
  ('CC1(C)N=C(N)N=C(N)N1c1ccc(Cl)cc1', 'inactive'),
  ('CC(=O)CC/C=C(\C)[C@H](O)[C@H](C)C(=O)O[C@H]1C[C@H](C)C=C2C=C[C@@]3(C)O[C@@H](O)CC(=O)[C@]3(C)[C@H]21', 'active');

What classification did "COc1cc(CNCCN2C(=O)c3ccc4c5c(ccc(c35)C2=O)C(=O)N(CCNCc2cc(OC)c(OC)c(OC)c2)C4=O)cc(OC)c1OC" end up with in this test? active

Just curious, what result did "COC(=O)[C@]12CC[C@@H](C)[C@H](C)[C@@H]1C1=CC[C@@H]3[C@@]4(C)C[C@@H](OC(=O)/C=C/c5ccccc5)[C@H](O)[C@@](C)(CO)[C@@H]4[C@H](O)C[C@@]3(C)[C@]1(C)CC2" get here? inactive

Per the records of this test, what outcome belongs to "CC1(C)N=C(N)N=C(N)N1c1ccc(OCCCNC(=O)Nc2cccc(S(=O)(=O)F)c2)c(Cl)c1" ? inactive

Returns: the outcome recorded for "N#CC(C#N)=C1CCOc2ccc(F)cc21" in this assay. inactive

###

TGI listing for selected compounds.
# Test system: OVCAR-3 ovarian
# protocol: NCI tumour cell line growth inhibition, 48 h

Reported TGI, compound "CCOC(=O)C(CCC(N)=O)(CCC(=O)OC)C(=O)OCC" : ____ > 100 µM

Could you share which TGI value was measured for "CC(C)(C)CC(C)(C)c1ccc(O)c(Cc2ccc(Cl)cc2Cl)c1" ? 3.11 µM

TGI lookup needed for "COC(=O)c1cc(=O)n(-c2ccc3nn(C)nc3c2)cc1C(=O)OC" , thanks. > 100 µM

###

# System: A498 renal
# protocol: NCI tumour cell line growth inhibition, 48 h
metric-name: TGI (µM)
Express the result in µM but write the number alone.

INSERT INTO assay_data (compound, recorded_result) VALUES
  ('COc1ccc(N2C(=O)C3c4[nH]c5ccccc5c4C4CC(C)(C)CC(C)(C)C4C3C2=O)cc1 (stereo not drawn)', 30.1),
  ('Clc1cc(Cl)c(OCCCCCCN2CCNCC2)c(Cl)c1', 22.6),
  ('CCN(CC)CC(C)C(=O)/C=C/c1ccc(C)cc1 (stereo not drawn)', 20.6);

I'd like to know its TGI. The compound in question is CC(C)CCCC(C)[C@H]1CC[C@H]2n3c(nc4ccccc43)CCC[C@]12C (stereo partly drawn) 28

Entry "CC(=O)c1cc2c(s1)C(=O)c1sccc1C2=O" has what TGI? 2.77

Recorded TGI of "CN(C)CCNC(=O)c1cc(Cl)cc2cc3ccccc3nc12" , please. 2.2

# lookup: TGI of CC(C)(C)C1CCC2c3c([nH]c4ccccc34)C3C(=O)N(c4ccccc4[N+](=O)[O-])C(=O)C3C2C1 (stereo not drawn) 36.5

Give the measured TGI of "O=C1c2cccnc2C(=O)c2c1c(C(=O)OCCN1CCCCC1)c1ccccn21" . 13.1

###

# Test system: SK-OV-3 ovarian
# protocol: NCI tumour cell line growth inhibition, 48 h
metric-name: TGI

INSERT INTO measurements (compound, recorded_result) VALUES
  ('CNC1Cc2c[nH]c3cccc(c23)C12C=C(C)C(=O)O2 (stereo not given)', '> 100 µM'),
  ('C=C1C(=O)O[C@@H]2/C=C(\C)CC/C=C(\C)CC[C@@]12O', '54.4 µM'),
  ('CC(C)(C)C(=O)Nc1cccc2oc(-c3ccccc3)cc12', '> 100 µM'),
  ('OCC(O)CNc1ncnc2ccccc12 (stereo not given)', '> 100 µM'),
  ('COc1ccc2[nH]c3c(c2c1)CC(=O)N1CCCC(CC3O)C1 (stereo not given)', '> 100 µM'),
  ('CCC1C(C(=O)Nc2ccccc2C)=C(C)NC(C)=C1c1ccccc1C (stereo not given)', '> 100 µM'),
  ('O=S1(=O)c2ccccc2C(Nc2ccccc2)N1c1ccccc1 (stereo not given)', '> 100 µM'),
  ('COc1ccc(CCN(CC(=O)N(CC(N)=O)C2CCC[C@@H]2OCc2ccccc2)C(=O)CN(C(=O)CN(CCc2ccc(Cl)cc2)C(=O)CN(C(=O)CN(C)Cc2ccccc2F)[C@H](C)C2CCCCC2)[C@H](C)C2CCCCC2)cc1OC (stereo not given in full)', '> 50 µM');

Record request: TGI value, item "COc1ccc2nc3c([N+](=O)[O-])ccc4c3c(c2c1)NCCN4CCN(C)C" 0.973 µM

For the compound shown here, CCN1c2cc(Br)cc3[nH]c(=O)n(c23)CCC1C (stereo not given) , give the reported TGI. 49.4 µM

Quick one: TGI for "CC[C@@]1(O)C(=O)OCc2c1cc1n(c2=O)Cc2cc3ccccc3nc2-1" ? 1.42 µM

Recorded TGI of "Cn1c(=O)c2nc3c(=O)n(C)c(=O)n(CC(N)=O)c3nc2n(C)c1=O" , please. > 100 µM

What value of measured TGI is listed for N/N=C(\c1nc2ccc([N+](=O)[O-])cc2[nH]c1=O)C(O)c1ccc(Cl)c(Cl)c1 (stereo not given) ? > 100 µM

Form field: reported TGI of "Cc1cc(C)nc(NS(=O)(=O)c2ccc(Nc3c4ccccc4nc4c(C(=O)NC(CO)(CO)CO)cccc34)cc2)n1" > 100 µM

Given the compound COc1cc(C2OC(N)=C(C#N)C3=C2C(C)CCC3)cc(OC)c1OC (stereo not given) , what is its reported TGI? > 100 µM

Return reported TGI; argument: "COc1ccc(C(=NN=C(N)N)c2ccc(OC)cc2)cc1" 10.6 µM

I am curious: what TGI value has been reported for "Cc1cc2c(c(O)c1-c1c(C)cc(O)c3c1C(=O)C=CC3=O)C(=O)C=CC2=O" ? 29 µM

Look at this compound and give its reported TGI. "O=C(c1ccccc1Cl)n1oc2ccccc2c1=O" > 100 µM

State the recorded TGI for this entry: Cc1cc(N2CCCCC2)nc(NC2CCCC(Nc3ccnc4cc(Cl)ccc34)C2)n1 (stereo not given) 3.17 µM

Quick check: TGI of "C#Cc1cccc(Nc2ncnc3ccc(OCCCCNCCS(C)(=O)=O)cc23)c1" ? > 25 µM

###

# System: RPMI-8226 leukemia
# protocol: NCI tumour cell line growth inhibition, 48 h
List of GI50 values.

INSERT INTO results (chemical_string, metric_name, recorded_result) VALUES
  ('O=C(O)c1cc(=O)cc(C(=O)O)o1', 'GI50', '> 100 µM'),
  ('O=c1c2ccccc2c(/C=N\NC2=NCCN2)c2oc3ccccc3n12', 'GI50', '28.6 µM'),
  ('C=CC(=O)NC(N)=NC#N', 'GI50', '91.6 µM'),
  ('Cc1ccc2cccc(OC(=O)Nc3cccc(C(F)(F)F)c3)c2n1', 'GI50', '2.52 µM'),
  ('COc1cc([N+](=O)[O-])c(OC)cc1-c1nc2sc(C)cn2c1/C(N)=N/C(=N)N', 'GI50', '84.1 µM');

Consider now this further compound.
Form: Entry = "Cc1cnc2oc3ccc(O)cc3c2c1-c1ccccc1" | System = RPMI-8226 leukemia | GI50 = ____ > 100 µM

###

# Tested on: SK-MEL-5 melanoma
# protocol: NCI tumour cell line growth inhibition, 48 h
metric-name: TGI (µM)
Please state the figure in µM; there is no need to write the unit.

Worked examples, 8 compounds total:
INSERT INTO measurements (compound, tested_target, unit, recorded_result) VALUES
  ('COc1ccc(/C=C2\COc3ccc(O)c(O)c3C2=O)c(OC)c1OC', 'SK-MEL-5 melanoma', 'µM', 5.33),
  ('COc1ccc(C(=NN=C(N)N)c2ccc(OC)cc2)cc1', 'SK-MEL-5 melanoma', 'µM', 5.76),
  ('Cc1[nH]c(=O)[nH]c(=O)c1/C=C/C(=O)NC(CO)CS(=O)CS(C)=O (stereo unspecified)', 'SK-MEL-5 melanoma', 'µM', 76.9),
  ('Cn1c2c(c3ccccc31)CCN(CCCCN1CCN(c3ccccc3)CC1)C2=O', 'SK-MEL-5 melanoma', 'µM', 22.9),
  ('CN(C)Cc1cc(C(=O)/C=C/c2ccc(Cl)c(Cl)c2)cc(CN(C)C)c1O', 'SK-MEL-5 melanoma', 'µM', 3.37),
  ('CCC/C(Cl)=N/OC(=O)Nc1cc(C(F)(F)F)ccc1OC', 'SK-MEL-5 melanoma', 'µM', 19.9),
  ('COc1ccc(NC(C)=O)cc1N1C(=O)/C(=C\c2ccccc2)SC1c1cc(OC)c(OC)c(OC)c1 (stereo unspecified)', 'SK-MEL-5 melanoma', 'µM', 37),
  ('C=C1C[C@@H]2O[C@H]3[C@H]4[C@@H](C[C@@H](C)[C@@H](OC(C)=O)[C@H]42)[C@@H](C)CO[C@@]3(C)[C@H](OC(=O)CCCCCCC)C[C@H]1O', 'SK-MEL-5 melanoma', 'µM', 28.8);

State the recorded TGI for this entry: "Cc1cc2nc(C=C(C(F)(F)F)C(F)(F)F)sc2cc1C" 8.77

Look up TGI for this compound: "CN/C=C(\C(=O)c1ccc(OC)c(OC)c1)c1ccc(OC)cc1" 35

Fill in: TGI of "O=C(Oc1c(Cl)cc(C2(c3cc(Cl)c(OC(=O)c4ccccc4)c(Cl)c3)CCCCC2)cc1Cl)c1ccccc1" is ___ 22.9

What TGI value was documented for this compound, CCOC(=O)C1=C(C)NC2=C(C(=O)N(c3ccccc3)C2c2ccccc2)C1c1ccccc1 (stereo unspecified) ? 28.6

Requested field: TGI. Item: "CN(C)CCCSc1ccccc1NC1=C(Cl)C(=O)C(Nc2ccccc2SCCCN(C)C)=C(Cl)C1=O" 3.55

Can you look up the measured TGI of "CC(=O)O[C@H]1CC[C@H]2[C@@H]3CCC4=CC(=O)C=C[C@]4(O)[C@H]3CC[C@]12C" for me? 23.4

Item "O=C(NCCCNCCN1C(=O)c2cccc3cc([N+](=O)[O-])cc(c23)C1=O)c1cc(-c2ccccc2)nc2ccccc12" has what recorded TGI? 5.97

Looking for the measured TGI of "CC(C)(C)CC(C)(C)c1ccc(O)c(Cc2ccc(Cl)cc2Cl)c1" , can you help? 2.95

Suppose we examine the compound "N#CC(C#N)=C/C=C/c1c(Cl)cccc1Cl" ; what TGI value has been reported? 3.28

Value lookup for TGI; key = "CCOc1ccc(/C=C/c2cc(OC)c(OC)c(OC)c2)cc1" 14.6
